Listed next: entries and their corresponding MIC.
Test system: Staphyrococcus Terajima
test method notes: In vitro antibacterial activity, two-fold agar-plate dilution method (MIC)
Type: cell-based
test conditions: Staphyrococcus Terajima; agar dilution, 37°C for 16 hours; read-out: MIC
Number in µg/mL, nothing else.

Examples with their reported MIC follow.
>  <molecule>
CO/N=C(\C(=O)N[C@@H]1C(=O)N2C(C(=O)[O-])=C(C[N+]34CCCCC3CCCC4)CS[C@H]12)c1csc(N)n1 (stereo partly drawn) [Compound (104)]

>  <MIC / µg/mL>
0.39

$$$$
>  <molecule>
CO/N=C(\C(=O)N[C@@H]1C(=O)N2C(C(=O)[O-])=C(C[N+]34CCC(CC3)C4)CS[C@H]12)c1csc(N)n1 [Compound (200)]

>  <MIC / µg/mL>
0.2

$$$$

Then there is this molecule:
Measured MIC of CON=C(C(=O)NC1C(=O)N2C(C(=O)O)=C(CSc3nnnn3C)CSC12)c1csc(N)n1 (stereo not drawn) [Comparative compound B] : 0.78

---

System: Staphyrococcus Terajima
test method notes: In vitro antibacterial activity, two-fold agar-plate dilution method (MIC)
Type: cell-based
test conditions: Staphyrococcus Terajima; agar dilution, 37°C for 16 hours; read-out: MIC
property: MIC (µg/mL)
Number in µg/mL, nothing else.

Examples with their reported MIC follow.
>  <compound>
CO/N=C(\C(=O)N[C@@H]1C(=O)N2C(C(=O)[O-])=C(C[N+]34CCCC3CCC4)CS[C@H]12)c1csc(N)n1 (stereo partly shown)

>  <assay target>
Staphyrococcus Terajima

>  <MIC, µg/mL>
0.39

$$$$
>  <compound>
CO/N=C(\C(=O)N[C@@H]1C(=O)N2C(C(=O)[O-])=C(C[N+]34CCC(CC3)C(=O)C4)CS[C@H]12)c1csc(N)n1

>  <assay target>
Staphyrococcus Terajima

>  <MIC, µg/mL>
0.2

$$$$
>  <compound>
CO/N=C(\C(=O)N[C@@H]1C(=O)N2C(C(=O)[O-])=C(C[N+]34CCC(CC3)C(O)C4)CS[C@H]12)c1csc(N)n1 (stereo partly shown)

>  <assay target>
Staphyrococcus Terajima

>  <MIC, µg/mL>
0.1

$$$$

Then there is this compound:
The compound CC(C)(O/N=C(\C(=O)N[C@@H]1C(=O)N2C(C(=O)[O-])=C(C[N+]34CCCC3CCC4)CS[C@H]12)c1csc(N)n1)C(=O)O (stereo partly shown) on Staphyrococcus Terajima: MIC was 0.78

---

System: Pseudomonas aeruginosa IFO3445
test method notes: In vitro antibacterial activity, two-fold agar-plate dilution method (MIC)
Assay type: cell-based
test conditions: Pseudomonas aeruginosa IFO3445; agar dilution, 37°C for 16 hours; read-out: MIC
property: MIC

>  <compound>
CO/N=C(\C(=O)N[C@@H]1C(=O)N2C(C(=O)[O-])=C(C[N+]34CCCCC3CCCC4)CS[C@H]12)c1csc(N)n1 (stereo partly shown) [Compound (104)]

>  <MIC>
1.56 µg/mL

$$$$
>  <compound>
CO/N=C(\C(=O)N[C@@H]1C(=O)N2C(C(=O)[O-])=C(C[N+]34CCC(CC3)C(O)C4)CS[C@H]12)c1csc(N)n1 (stereo partly shown) [Compound (302)]

>  <MIC>
0.39 µg/mL

$$$$
>  <compound>
CON=C(C(=O)NC1C(=O)N2C(C(=O)O)=C(CSc3nnnn3C)CSC12)c1csc(N)n1 (stereo not shown) [Comparative compound B]

>  <MIC>
12.5 µg/mL

$$$$
>  <compound>
CC(C)(O/N=C(\C(=O)N[C@@H]1C(=O)N2C(C(=O)[O-])=C(C[N+]34CCCC3CCC4)CS[C@H]12)c1csc(N)n1)C(=O)O (stereo partly shown) [Compound (116)]

>  <MIC>
0.2 µg/mL

$$$$
>  <compound>
CO/N=C(\C(=O)N[C@@H]1C(=O)N2C(C(=O)[O-])=C(C[N+]34CCCC3CCC4)CS[C@H]12)c1csc(N)n1 (stereo partly shown) [Compound (100)]

>  <MIC>
1.56 µg/mL

$$$$

Measured MIC of CO/N=C(\C(=O)N[C@@H]1C(=O)N2C(C(=O)[O-])=C(C[N+]34CCC(CC3)C4)CS[C@H]12)c1csc(N)n1 [Compound (200)] : 1.56 µg/mL

Measured MIC of CO/N=C(\C(=O)N[C@@H]1C(=O)N2C(C(=O)[O-])=C(C[N+]34CCC(CC3)C(=O)C4)CS[C@H]12)c1csc(N)n1 [Compound (300)] : 0.39 µg/mL
